Please go through the items and note down their Vd/F.
# Assay Name: Pharmacokinetic study in rats after oral administration of cinobufacini capsule (UPLC-MS/MS of plasma)
# Type: in vivo, rat
# Run Conditions: male, Sprague-Dawley, in vivo; rat plasma, oral cinobufacini capsule 1.8 g/kg (medium), mean ± SD, n = 6; read-out: Vz/F
Supply the numeric figure in L/kg, leaving out any unit text.

# input I would be grateful if you could share the reported Vd/F for `C[C@]12CC[C@H](O)C[C@H]1CC[C@@H]1[C@@H]2C(=O)[C@@H](O)[C@]2(C)[C@@H](c3ccc(=O)oc3)CC[C@]12O` .
# output 2.65

# input Would you mind telling me what Vd/F value was observed for `C[C@]12CC[C@H](O)C[C@H]1CC[C@@H]1[C@@H]2[C@H](O)C[C@]2(C)[C@@H](c3ccc(=O)oc3)CC[C@]12O` ?
# output 3.03

# input Quick check: Vd/F of `C[C@]12CC[C@H](O)C[C@H]1CC[C@@H]1[C@@H]2[C@H](O)C(=O)[C@]2(C)[C@@H](c3ccc(=O)oc3)CC[C@]12O` ?
# output 4.2
